Data origin, for the record: PubChem BioAssay AID1850

Experiment: PhoP regulon inhibitors, Salmonella typhi PhoP promoter GFP reporter, confirmatory (AID 1850);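 note: 0% = induced wells with vehicle and 100% = uninduced wells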
Settings: fluorescence, 4 h, at 50 µM, stronger effect = higher value
About 1,000 (0.32%) of roughly 310,000 compounds were called active. These entries were drawn from the full list. Potency and affinity values are given separately.

COMPOUND: CN(C)[C@@H]1C(=O)C(C(=O)NCN2CCCC2)=C(O)[C@@]2(O)C(=O)C3=C(O)c4c(O)cccc4[C@@](C)(O)C3CC12 (some centres not stated)
inhibition [%]: -8.43
//
COMPOUND: O=C(COc1ccc(/C=N/NC(=O)c2ccncc2)cc1)Nc1ccccc1
inhibition [%]: -0.13
//
COMPOUND: CC(C)(C)c1ccc(C(=O)NC(=S)NNC(=O)COc2ccccc2)cc1
inhibition [%]: -4.42
//
COMPOUND: COCCCn1c(C23CC4CC(CC(C4)C2)C3)n[nH]c1=S
inhibition [%]: -6.32
//
COMPOUND: CN(C)[C@@H]1C(=O)C(C(N)=O)=C(O)[C@@]2(O)C(=O)C3=C(O)c4c(O)cccc4[C@@](C)(O)[C@H]3[C@H](O)[C@@H]12
inhibition [%]: 5.02
//
COMPOUND: O=c1c([N+](=O)[O-])c(N2CCCCCC2)c2ccccc2n1-c1ccccc1
inhibition [%]: 4.43
//
COMPOUND: N#C/C(=C\c1cn(CCOc2ccccc2)c2ccccc12)C(=O)NCc1cccs1
inhibition [%]: -5.68

###

Assay: PhoP regulon inhibitors, Salmonella typhi PhoP promoter GFP reporter, confirmatory (AID 1850);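 note: 0% = induced wells with vehicle and 100% = uninduced wells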
Settings: fluorescence, 4 h, at 50 µM, stronger effect = higher value
In all, about 310,000 compounds went through this assay and about 1,000 (0.32%) were called active. The list is a sample of the results. Potency and affinity values are given separately.

MOLECULE: CCOC(=O)C1=C(CS(=O)(=O)c2ccccc2)NC(=O)NC1c1ccc(OC)c(OC)c1 (stereo unspecified)
inhibition [%]: -2.15

MOLECULE: COc1ccc(C(CC(=O)O)c2ccc3c(c2)OCO3)cc1 (stereo unspecified)
inhibition [%]: 0.47

MOLECULE: CN(C)CCCn1c(SCC(=O)N2CC(=O)Nc3ccccc32)nc2ccccc2c1=O
inhibition [%]: 0.42

MOLECULE: CC(C)(O)CC[C@H](OC(=O)c1ccccc1)[C@](C)(O)[C@H]1CC[C@@]2(O)C3=CC(=O)[C@@H]4C[C@@H](O)[C@H](O)C[C@]4(C)C3CC[C@]12C (stereo partly specified)
inhibition [%]: 4.63

MOLECULE: CCOc1ccc2nc(N3CCCC(C(=O)NCCCN4CCCCC4)C3)sc2c1 (stereo unspecified)
inhibition [%]: 6.31

MOLECULE: CC(CCN1CCN=C1Nc1ccccc1)c1ccccc1 (stereo unspecified)
inhibition [%]: 0.31

MOLECULE: CC(C)Cn1c(SCc2nc3ccccc3c(=O)[nH]2)nc2ccccc2c1=O
inhibition [%]: -7.91

MOLECULE: Oc1ccc(/C=N/Nc2nccnc2Cl)cc1
inhibition [%]: -3.22

MOLECULE: COc1ccc(N(CC(=O)Nc2ccccc2C(=O)NCCc2ccccc2)S(C)(=O)=O)cc1OC
inhibition [%]: -12.9

MOLECULE: Cc1ccc(C)c(-c2csc(-c3cccnc3)n2)c1
inhibition [%]: 1.2

MOLECULE: Fc1ccc(C[n+]2c(-c3ccccc3)cc(-c3ccccc3)cc2-c2ccccc2)cc1
inhibition [%]: 11.1

MOLECULE: O=C(NNS(=O)(=O)c1ccccc1)c1cccc([N+](=O)[O-])c1
inhibition [%]: -3.37

MOLECULE: Cc1ccc(S(=O)(=O)N2CCCC(C(=O)NCC3COCCO3)C2)cc1 (stereo unspecified)
inhibition [%]: -3.93

MOLECULE: O=C(Nc1cccc(Cl)c1)N1CCN(c2ncccn2)CC1
inhibition [%]: 8.55

MOLECULE: O=C(CN(C(=O)c1csnn1)c1ccccc1Cl)NC1CCCC1
inhibition [%]: 13.4

MOLECULE: Cc1ccc(-c2cc(-c3ccccc3)cc(-c3ccccc3)[n+]2-c2ccccc2)cc1
inhibition [%]: 20.6
